assay: yeast display, Sf9 membrane polyspecificity reagent, FACS + sequencing; frameworks hold sequencing errors
parameter: polyreactivity (PSR sort gate)

QVQLVESGGGLVQAGGSLRLSCAASGIIFGSYAMGWSRQAPGKERELVAAISYSGSTFYADSVKGRFTISRDNAKNTVYLQMNSLKPEDTAVYYCNADRYAKWYRKYRPNDYWGQGTQVTVSS    high polyreactivity
QVQLVESGGGLVQAGGSLRLICAASGRSFQYYVMGWYSQAPGKEWELVAAMNRRGTSTYYADSVKGRFTISRDNAKNTVYLQMNSLKPEDTAVYYCAAVDRDYARTTTYDYWGQGTQVSVSS    high polyreactivity
QVQLVESGGGLVQAGGSLRLSCAASGRTFRKYAMGWYRQAPGKERELVAAISQRGGTTYYADSVKGRFTISRDNAKNTVYLQINSLKPEDTAVYYCNVAWVGVSLVYGPFEYDYWGQGTQVTVSS    high polyreactivity

###

test: yeast display, Sf9 membrane polyspecificity reagent, FACS + sequencing; frameworks hold sequencing errors
parameter: polyreactivity (PSR sort gate)

Some sequences with recorded polyreactivity (PSR sort gate):
QVQLVESGGGLVQAGGSLRLSCAASGIIFTVYVMGWYRQAPGKERELVAGITFSTSSTYYADSVKGRFTISRDNAKNTVYLQMNSLKPEDTAVYYCNKDALQTAFDYWGQGTQVTVSS    low polyreactivity
QVQLVESGGGLVQAGGSLRLSCAASGLIFPPNVMGWYRQAPGKDRELVAAITSSGSTNYADSVTGRFTISRDNAKNTVYLQMNSLKPEDTAVYYCARDQTWSYQPWYYLSYTQYEYWGQGNQVTVSS    low polyreactivity
QVQLVESGGGLVQAGGSLRLSCAASGSTFRVYAMGGDRQAPGKERELVAAITYSGGSTYYADSVKGRFTISRDNAKNTVYLQMNSLKPVDTAVYYCAADGYYGGYNYWGQGTQVTVSS    low polyreactivity
QVQLVESGGGLVQAGGSLRLSCAASGLTLQPYAMGWYRQAPGKERELVAAITSGGSTYYADSVKGRFTISRDNAKNTVYLQMNSLKPEDTAVYYCAAVGRHYYVKFDYWGQGTQVTVSS    low polyreactivity
QVQLVESGGGLVQAGGSLRLSCAASASTIIRNAMGWYRQAPGKERELVAAISTSGGRTHYADSVKGRFTISRDNAKNTVYLQMNSLKPEDTAVYYCDTRGKGHYYYWGQGTQVTVSS    high polyreactivity

polyreactivity (PSR sort gate) in this record for QVHLVESGGGLVKAGGSLRLSCAASGRTFYKYAKGWYRQAPGKEREFVADISSRGGSTYYEDSVKGRFTISRDNAKNTLYLQMNSLKPEDTAVYYCNSRRNSVRYNYWGQGTQVTVSS : high polyreactivity

Value of measured polyreactivity (PSR sort gate) for the entry QVQVVESGGGIVQAGGSLRLSCAASGFIFNGNAMGWYRQAPGKERELVAADSVKGRFTISRDNAKNSVYLQMNRLKPEDTAVYYCATEFWQASDYDYWGHGTQVTVSS : low polyreactivity

Sample QVQLVESGGGLVQAGGSLRLSCAASGRILWSYAMGWYRQAPGKERELVAAITSGTRTNYADSVKGRFTISRDNAKNTVYLQMNSLKPEDTAVYYCAADRYWPAFYRTRGWDYYYWGQGTQVTVSS ; polyreactivity (PSR sort gate) observed: high polyreactivity

Consider QVQLVESGGGLVQAGGSLRLSCAASGITFGGNAMGWYRQAPGKERELVAAISSSGGSTYYADSVKGRFTISRDNAKNTVYLQMNSLKPEDTAVYYCAARNRYPLRFYYWGQGTQVTVSS . Its measured polyreactivity (PSR sort gate) is high polyreactivity

Notebook: QVQLVESGAGLVQAGGSLRLICAASGSTFVKNVMGCYRQAPGKERELVAGITRGGSTYYADSVKGRFTISRDHAKNSVYLQMNSLYPDDTAVYYWAKRYAWELDYWGQGSQVTVSS , polyreactivity (PSR sort gate) read as high polyreactivity

// sample QVQLVESGGGLVQAGGSLRLSCAASGSTFFGNAMGWYRQAPGKERELVAAITSGGSTNYADSVKGRFTISRDNAKNTVYLQMNSLKPEDTAVYYCAKEYHYYYWGQGTQVTVSS , its polyreactivity (PSR sort gate) was low polyreactivity

###

test: yeast display, Sf9 membrane polyspecificity reagent, FACS + sequencing; frameworks hold sequencing errors
parameter: polyreactivity (PSR sort gate)

Worked cases, answers included:
HFQLVEAGGGLVQAGGSLSLSCADSGRTYSHYAMGWYSQAPAQVRELVAGISSGSRTNYADSVKGRFTISRDNAKNTVYLQMNSLKPEDTAFYYCAARTNYLKGGYWGQGTQVTVSS    high polyreactivity
QVQLVESGGGLVQAGGSLRLSCAASGRTFAAYAMGWYRQAPGKERELVAAIRRGGTTNYADSVKGRFTISRDNAKNTVYLQMNSLKPEDTAVYYCAALAPYSRSWVTYDYWGQGTQVTVSS    low polyreactivity
QVQLQESGGGLVQAGGSLRLSCAASGTISPLPAMGWYRQAPGKEREFVAGIDTGAITNYADSVKGRFTISRDNAKITVYLQMNSLKPEDTAVYYCAVFPAAYDYYERYYTYWGQGTQVTVSS    low polyreactivity
QVQLEESGGGLVQAGGSLRLSCAASGYTFYLYAMAWYRQSPGKERELVAAISTNGGRTYYADSVKGRFTISRDNAKNTVYLQMNSLKPEDTAVYYCAVRSRGTAPQYYYWGQGTQVTVSS    high polyreactivity
QVQLVESGGGLVQAGGSLRLSCAASGGTFSYNTMGWYRQAPGKERELVAVITFSGGSTYYADSVKGRFTISRDNAKNTVYLQMNSLKPEDTAVYYCNARSYPRWLRYDYWGQGTQVTVSS    low polyreactivity
QVHLVESGGGLVQAGGSLRLSCAASGSIFGTNALGWYRQAPGKERELVAAINWSGGTTYYADSVKGRFTISRDNAKNTVYLQMNTLKPEDTAVYYCATFFFVLPPTRFDSWGQGTQVTVSS    low polyreactivity
QVQLVESGGGLVQAGGSLRLSCAASGRIFGDYAMGWYRQAPGKERELVADITWSGGSTYYADSVKGRFTISRDNAKNTVYLQMNSLKPEDTAVYYCNADYDGGYYGDLSLYDYWGQGSQVTVSS    low polyreactivity
QVQLVESGGGLVQAGGSLRLSCAASGRTFNAYAMGWYRLAPWKERELVAAISSGGSTYYADSVKGRFTISRDNAKNTVYLQMNSLKQEDTAVYYSNKVYGWRQFDYWGNGTQVTVSS    high polyreactivity
QVHLVESGGGLVQAGGSLRLSCAASGIIVYPYAMGWYRQAPGKESELVATISYRGGSTYYADSVKGRFTISRDNAKNTVYLQMNSLKPEETAVYYCAAERGYPKFGYCGQGTQVTVSS    low polyreactivity
QVQLVESGGGLVQAGGSLRLSCAASGITFYDYAMGWYRQAPGKERELVAAISDSGGITYYADSVKGRFTISRDNAKNTVYLQMNSLKPEDTAVYFCAAEDQLNRDYWGQGTQVTVSS    high polyreactivity

Please turn your attention to the following entry.
Record QVQLVESGGGLVQAGGRLRLSCAASGFTFYRYAMGWYRQAPGKERELVAAITDSGDSTYYADSVKGRFTISRDNAKNTVYLQMNSVKPEDTAVYYCNTLVDLDGFEYYYWGQGTQVTVSS . Reported polyreactivity (PSR sort gate): high polyreactivity

###

assay: yeast display, Sf9 membrane polyspecificity reagent, FACS + sequencing; frameworks hold sequencing errors
parameter: polyreactivity (PSR sort gate)

QDQLVESGGGLVQAGGSLRLSSAASGRTFCYNTKGWYRQSPGKERELLAAINYSGGSTYYADSVKGRFTISRDNAKNTVYLQMNSLKPEDTAVYYWNAKPRWYVPYDYWGQGTQVNVSS    high polyreactivity
QVQLGESGGGLVQAGGSLRLSCAASGLIFVWNDMGWYRQAPGKEGELVADISDGSTYADSVKGRFTISRDNAKNTVYVQMNRLQPEHTAVYYCNKDNHDVELPVEFEYWGQGTQVTVSS    high polyreactivity

###

assay: yeast display, Sf9 membrane polyspecificity reagent, FACS + sequencing; frameworks hold sequencing errors
parameter: polyreactivity (PSR sort gate)

Examples from the recorded data:
QVQLVESGGGLVQAGGSLRISSAASGFTFTPNAKGWYRQAPGKERELVAVITWNGGTTYYADSVKGRFTISRDNAQNTVYLQMNSLKPEDTAVYYCNADGLILYDYWGHGTQVTVSS    low polyreactivity
QVQLVESGGGLVQAGGSLRLSCAASGRIFDFNPMGWYRQAPGKEREVVAAISSGGRTKYADSVKGRFTISRDNAKNTVYLQMNSLKPEDTAVYYCAASGSQPDDYWGQGTQVTVSS    high polyreactivity
QVQLVESGGGLVKAGGSLRLSCAASGSIFYFNAMGWYRQAPGKERELVATIRSGDGRTYYADSVKGRFTISRDNAQNTVYLQMNSLKPEDTAVYYCNASRVVYRQAYVYGYDYWGKGTQVTVSS    low polyreactivity
QVQLVESGGGLVQAGGSLRLSCAASGSIFPWYVMGWYRQAPGKERELVAAISWNGGITYADSVKGRFTISRDNAKNTVYLQMNSLKPEDTGVYYCAAYYITYSYIEYDYWGQGTQVSVSS    high polyreactivity
QVQLVESGGGLVQAGGSLRLSCAASGSISYVYAMGWYRQAPGKERELFAAISYSDGSTYYADSVKGRFTISRDNAKNTVYLQMISLKPEDTAVYYCAADAVYPFPYYWEYYYWGQGTQVTVSS    high polyreactivity
QVQFVESGGGLVQARCSLRLSCAASGFIFGVYAMGWYRQAPGKERELVAAINSGGGSTYYADSVKGRFTISRDNAKNTVYLQMNSLKPEDTAVYYCAVRYKSWYGFNYWGQGTQVTVSS    high polyreactivity
QFQLVESGGGLVQAGGSLRLSSAASGFTFIRYAMGWYRPAPGKERELVAAITVSGTRTYYADSVKGRFTISRDNAKNTVYLQMNSLKPEDTAVYYCNARDVYTGYGMGYWGQGTQVTVSS    high polyreactivity
QVQLVESGGGLVQAGGSLRLSCAASGYTFFVYAMGWYRQAPGKERELVAAIDLNGGSTSYADSVKGRFTISRDNAKNTVYLQMNSLKPEDTAVYYCAAYSWVGYDYDYWGQGTQVTVSS    low polyreactivity
QVQLVESGGGLVQAGGSLRLSCAASGFIFGGYAMGWSRQAPGKERELVAAISRSGGSTYYADSVKGRFTISRDNAKNTVYLQMNSLKPEDTAVYYCNAVPRRQGFNYWGQGTQVTVSS    high polyreactivity
QVQLVESGGGLVQAGGSLRLSCAASGSYAKGWYRQAPGKERELVAYINGRDGSTYYADSVKGRFTISRDNAKNTVYLQMNSLIPEDTAVYYCNADYVLQYNYWGQGTQVTVSS    low polyreactivity

polyreactivity (PSR sort gate) recorded for this sequence, QVQLVESGGGLVQAGGSLRLSCAASGSTFNKYAMGWYRPPPGKERELVAAISWTGGHTYYADSVKGRFTFSRDNAKNTVYLQMNSLKPEDTAVYYCNTVNSRPKYNYWGQGTQVTVSS , is high polyreactivity
